Quick reference for IC50 among some compounds
Biological target: MLLT1 (Homo sapiens, UniProt Q03111)
Sequence (Q03111 1-559): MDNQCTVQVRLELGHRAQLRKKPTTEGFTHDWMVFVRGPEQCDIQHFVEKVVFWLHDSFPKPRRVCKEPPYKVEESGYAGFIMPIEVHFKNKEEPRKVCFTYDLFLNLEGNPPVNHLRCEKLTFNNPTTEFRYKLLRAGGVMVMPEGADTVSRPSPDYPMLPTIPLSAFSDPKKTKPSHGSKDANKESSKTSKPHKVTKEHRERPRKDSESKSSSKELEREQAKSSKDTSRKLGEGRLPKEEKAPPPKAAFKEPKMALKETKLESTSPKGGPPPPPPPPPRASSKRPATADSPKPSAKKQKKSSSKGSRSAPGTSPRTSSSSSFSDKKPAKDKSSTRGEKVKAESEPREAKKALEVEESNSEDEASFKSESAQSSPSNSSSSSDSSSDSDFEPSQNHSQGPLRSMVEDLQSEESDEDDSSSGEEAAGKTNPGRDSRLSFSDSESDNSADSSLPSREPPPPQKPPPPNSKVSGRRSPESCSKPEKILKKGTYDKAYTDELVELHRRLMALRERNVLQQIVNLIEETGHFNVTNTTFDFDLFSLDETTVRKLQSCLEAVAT
Assay: MLLT1 HTRF IC50 determination assay (H3K9cro peptide displacement)
Type: binding
Settings: category, Table 4
Procedure: This procedure is intended to measure the interaction between YEATS proteins and histone peptides modified by an appropriate epigenetic mark and can be used to assay compounds which bind to the YEATS proteins and inhibit this interaction. […] The HTRF ratio was calculated as channel A/B*10000 and the specific signal as follow: specific signal=HTRF Ratio Positive signal—HTRF Ratio Negative signal (without protein). […]

Compound	IC50
CN1CCCC1c1[nH]c2cc(NC(=O)c3ccc4c(cnn4C)c3)ncc2c1F (single isomer, unassigned) [Example 86]	1000 to 10000 nM
Cc1c(C2CCCN2C)[nH]c2cc(NC(=O)c3ccc4c(C)nn(C)c4c3)ncc12 (single isomer, unassigned) [Example 90]	≤ 100 nM
CN1CCCC1c1cc2cnc(NC(=O)c3ccc4c(cnn4C)c3)cc2[nH]1 (single isomer, unassigned) [Example 78]	1000 to 10000 nM
Cc1nn(C)c2cc(C(=O)Nc3cc4[nH]c(C5CCCN5C)cc4cn3)ccc12 (racemic) [Example 75]	≤ 100 nM
Cc1nn(C)c2cc(C(=O)Nc3cc4[nH]c([C@H]5CCCN5C)c(Cl)c4cn3)ccc12 [Example 80]	≤ 100 nM

Task: Quote IC50 with test system MLLT1 (Homo sapiens, UniProt Q03111) for Cc1nn(C)c2cc(C(=O)Nc3cc4[nH]c([C@H]5CCCN5C)cc4cn3)ccc12 (single isomer, unassigned) [Example 76]
Output: ≤ 100 nM

Task: State IC50 on MLLT1 (Homo sapiens, UniProt Q03111). Entry: Cc1nc(NC(=O)c2ccc3c(C)nn(C)c3c2)cc2[nH]c(C3CCCN3C)cc12 (single isomer, unassigned) [Example 93]
Output: 1000 to 10000 nM

Task: Jot down IC50 (MLLT1 (Homo sapiens, UniProt Q03111)) of Cc1nn(C)c2cc(C(=O)Nc3cc4[nH]c([C@@H]5CCCN5C)cc4cn3)ccc12 (single isomer, unassigned) [Example 77] .
Output: 100 to 1000 nM

Task: // fetch IC50 for Cc1nn(C)c2cc(C(=O)Nc3cc4[nH]c(C5CCCN5C)c(F)c4cn3)ccc12 (single isomer, unassigned) [Example 89] ; system: MLLT1 (Homo sapiens, UniProt Q03111)
Output: 100 to 1000 nM

Task: Give IC50 for Cc1nn(C)c2cc(C(=O)Nc3cc4[nH]c([C@@H]5CCCN5C)c(Cl)c4cn3)ccc12 [Example 81] tested on MLLT1 (Homo sapiens, UniProt Q03111).
Output: 100 to 1000 nM

Task: Check MLLT1 (Homo sapiens, UniProt Q03111) data and give IC50 for Cc1c(C2CCCN2C)[nH]c2cc(NC(=O)c3ccc4c(C)nn(C)c4c3)ncc12 (single isomer, unassigned) [Example 91] .
Output: 1000 to 10000 nM

Task: // fetch IC50; item: CN1CCCC1c1[nH]c2cc(NC(=O)c3ccc4c(cnn4C)c3)ncc2c1F (single isomer, unassigned) [Example 87] ; system: MLLT1 (Homo sapiens, UniProt Q03111)
Output: ≤ 100 nM

Task: Look up and report measured IC50 (MLLT1 (Homo sapiens, UniProt Q03111)) for the following compound: CCN1CCCC1c1cc2cnc(NC(=O)c3ccc4c(C)nn(C)c4c3)cc2[nH]1 (single isomer, unassigned) [Example 85]
Output: 1000 to 10000 nM

Task: Output reported IC50 of the compound CN1CCCC1c1cc2cnc(NC(=O)c3ccc4c(cnn4C)c3)cc2[nH]1 (single isomer, unassigned) [Example 79] on MLLT1 (Homo sapiens, UniProt Q03111).
Output: ≤ 100 nM

Provenance of the data: patent US20260199484A1
